Experiment: inhibition of Brca1/Bard1 split-luciferase complementation, confirmation, counter-screen for Mdm2/MdmX interaction inhibitor project, luminescence, single concentration (AID 504668)
Conditions: Brca1/Bard1 bimolecular luciferase complementation counterscreen, at 8 µM, hits give high values
Active and inactive are the calls of the source. How the calls were made is not given here.
For each record, write down the corresponding inhibition.

For every listed record, write down its inhibition.
1. Cc1cc(C)cc(OCc2nc3ncc(Br)cc3[nH]2)c1
2. O=C(Nc1cc(Cl)ccc1O)c1snnc1-c1ccccc1
3. CCOc1ccccc1CNC(=O)c1cc2oc3ccccc3c2n1CC
4. O=C(N/N=C/c1cc(Br)cc(Br)c1O)c1cccc(N2CCCC2=O)c1
5. Cc1[nH]nc2ncc(C(=O)c3ccccc3O)cc12
6. Cc1ccc(C(C)C)c(OCc2nn(CC(=O)c3ccc(Cl)cc3)c3[n+]2CCCCC3)c1
7. CC[C@]1(c2ccccc2OC)ON(c2ccccc2C(F)(F)F)C1=O
8. Cc1ccc(N(Cc2cc(=O)[nH]c3ccccc23)C(=O)CCl)cc1

30.8% (active)
23% (active)
25.6% (active)
26.3% (active)
30.4% (active)
25% (active)
34.6% (active)
25.3% (active)

Hi team, please reply with inhibition for each item in this list.
1. CCCCCCCCCCOC(=O)Cn1c(COc2cccc(C)c2)[n+](C)c2ccccc21
2. COc1ccc(C(=O)CN2C(=O)c3ccccc3S2(=O)=O)cc1
3. CN(Cc1ccccc1)C(=O)c1ccc(NC(=O)C2CCN(C(=O)OC(C)(C)C)CC2)cc1

1: 24.9% (active); 2: 25.5% (active); 3: 31.6% (active)
